measurement_setup: buffer; pH 7.4; 200.0 µM
assay_endpoint: solubility kinetic

>>> result("CCCS(=O)(=O)NCCc1csc(-c2ccc(OC)c(OC)c2)n1")
"51.7 µg/mL"
>>> result("O=S(=O)(c1ccc2c(c1)CCN2)N1CCOCC1")
"> 40.2 µg/mL"
>>> result("CCNC(=S)Nc1ccc(OCc2nc3ccccc3s2)cc1")
"2.8 µg/mL"

Would you mind giving solubility kinetic for every compound in the list below?
1. N#CC1(NC(=O)CSc2nc3ccccc3o2)CCCCC1
2. CCOc1cccc(CNc2nnnn2C)c1
3. CCS(=O)(=O)c1ccc2oc(Nc3cccc(OC)c3)nc2c1

Response given:
["> 47.3 µg/mL", "> 35 µg/mL", "8.2 µg/mL"]

###

measurement_setup: buffer; pH 7.4; 200.0 µM
assay_endpoint: log10 of solubility kinetic (log10 of the value in µg/mL)
All values: base-10 log of solubility kinetic in µg/mL.

# annotated cases, reported log10 of solubility kinetic shown
>>> quantitative_readout("CC(OC(=O)c1ccccn1)C(=O)Nc1nc(-c2ccc(F)c(F)c2)cs1 (stereo not drawn)")
0.90
>>> quantitative_readout("C=CCN(c1ccccc1OC)S(=O)(=O)c1cccc(C(=O)OC2CCOC2=O)c1 (stereo not drawn)")
1.75
>>> quantitative_readout("Cn1c(=O)c([N+](=O)[O-])c(-n2ccnc2)c2ccccc21")
1.57
>>> quantitative_readout("S=C(/N=c1/sccn1Cc1ccccc1)NC1CC1")
0.73
>>> quantitative_readout("COc1ccc(C(=O)Nc2cccc3c2CCCC3)cc1OC")
0.00
>>> quantitative_readout("Cc1nc2cc3c(cc2s1)OCO3")
1.12
>>> quantitative_readout("O=c1oc2ccccc2n1Cc1cccc(F)c1")
0.92
>>> quantitative_readout("C=CCSc1nc2sc3c(c2c(=O)n1CC)CCC3")
-0.10
>>> quantitative_readout("CCOC(=O)Oc1ccc(/C=C2\\N=C(C)OC2=O)cc1")
1.56
>>> quantitative_readout("Cc1c(C(=O)N(C)Cc2ccc(OC(F)F)cc2)oc2ccccc12")
0.81

Would you mind giving log10 of solubility kinetic for every compound in the list below?
1. Cc1ccc(OCC(=O)Nc2ccccc2C(=O)NC2CC2)cc1C
2. Cc1ccc(CNC(=O)c2cc3ccccc3oc2=O)cc1
3. O=C(CN1C(=O)NC(CCc2ccccc2)C1=O)Nc1cccc(Br)c1 (stereo not drawn)
4. CC(C)Cc1ccc(C(=O)NCCOc2ccccc2)o1
5. Cc1cc(OC(=O)c2ccc(C(C)(C)C)cc2)c([N+](=O)[O-])c(=O)[nH]1
6. COc1ccc(-c2cc3nc(CCl)[nH]c(=O)c3s2)cc1

Response given:
1. -0.10
2. 0.08
3. 0.72
4. 1.47
5. 1.67
6. 0.45

###

measurement_setup: buffer; pH 7.4; 200.0 µM
assay_endpoint: solubility kinetic (µg/mL)
Answers are plain numbers, in µg/mL.

# annotated cases, reported solubility kinetic shown
>>> quantitative_readout("CC(C)(C)Nc1nc2ccc([N+](=O)[O-])cc2o1")
31.9
>>> quantitative_readout("COc1ccc(Nc2ccc(C(F)(F)F)cc2[N+](=O)[O-])cn1")
1.8
>>> quantitative_readout("CCOc1ccc(N2CC(C(=O)Nc3cc(S(=O)(=O)N4CCCCC4)ccc3C)CC2=O)cc1 (stereo not given)")
1.3

Would you mind giving solubility kinetic for every compound in the list below?
1. O=C(COC(=O)CNC(=O)c1ccccc1)NCCCc1ccccc1
2. Cc1cccc(NC(=S)NC(=O)c2ccc(-c3ccccc3)cc2)n1
3. Br.Cc1ccc(C2Cc3cc(O)c(O)cc3CN2)cc1 (stereo not given)
4. Cc1c(C)c2ccc(OCC(=O)N3CCN(Cc4ccccc4)CC3)cc2oc1=O.Cl
5. CCN(CC)S(=O)(=O)c1cc(NC(=S)NC(=O)C2CCCC2)ccc1C
6. COc1cccc(NC(=S)NC(=O)c2cccnc2)c1
7. Cn1c(N)c(C(=O)COC(=O)Cc2c(F)cccc2Cl)c(=O)n(C)c1=O

Response given:
52.3
0.5
44.3
2.5
6.1
40
31.9

Would you mind giving solubility kinetic for every compound in the list below?
1. Cc1ccc(CC(=O)Nc2ccc(S(=O)(=O)N3CCOCC3)cc2)cc1
2. O=C(CC(=O)c1ccccc1)Nc1ccc(Cl)cc1
3. CC(=O)CN1C(=O)NC(c2ccccc2)(c2ccccc2)C1=O

Response given:
1: 7.5; 2: 3.3; 3: 33.9

Would you mind giving solubility kinetic for every compound in the list below?
1. Cc1cc(C)cc(N2C(=O)CCN(Cc3ccccc3)C2=O)c1
2. COc1ccccc1NC(=O)c1ccc2nsnc2c1
3. CCN1C(=O)c2ccccc2Sc2ccc(C(=O)NC(C)C)cc21
4. O=C(c1cc2ccccc2o1)N1CCN(c2ccccn2)CC1

Response given:
38
39.6
47.9
11.4

Would you mind giving solubility kinetic for every compound in the list below?
1. O=C(NC(=S)NC1CCSC1=O)c1ccc([N+](=O)[O-])cc1 (stereo not given)
2. CC1CCc2sc(C(=O)NCc3ccccn3)cc2C1 (stereo not given)
3. CSc1ncc(C(=O)NCCCc2ccccc2)c(C)n1
4. Cc1ccnc(Cc2ccccc2)n1
5. O=C(COC(=O)c1cccc(O)c1)Nc1ccc(OC(F)F)cc1
6. Cc1cc(C)c2c3c(sc2n1)C(=O)N(c1ccccc1C)CC(=O)N3

Response given:
1. 40.6
2. 13
3. 43
4. 18.5
5. 46.2
6. 25.5

###

measurement_setup: buffer; pH 7.4; 200.0 µM
Provide the recorded solubility kinetic for the entries that follow.
Numbers only, in µg/mL.

>>> quantitative_readout("CC(OC(=O)c1ccc(NC(=O)CC#N)cc1)C(=O)NC(c1ccccc1)c1ccccc1 (stereo unspecified)")
8.5
>>> quantitative_readout("Cc1ccc(NC(=O)CCn2c(=O)[nH]c3ccsc3c2=O)cc1")
8.2

Challenge: Need solubility kinetic, item COc1cc(C2/C(=C(\O)c3ccc4c(c3)OCCO4)C(=O)C(=O)N2Cc2ccco2)ccc1O (stereo unspecified)
Response given: 66.7

###

measurement_setup: buffer; pH 7.4; 200.0 µM
assay_endpoint: solubility kinetic (µg/mL)
One number for each entry, in µg/mL.

# annotated cases, reported solubility kinetic shown
>>> quantitative_readout("COc1ccccc1NC(=S)NCc1ccc(Cl)cc1")
33
>>> quantitative_readout("OCCN(CCO)CC(O)COc1ccc(Br)cc1 (stereo not drawn)")
6.7
>>> quantitative_readout("O=C1CNC(=S)N1CCCn1ccnc1")
31.5
>>> quantitative_readout("Cc1cc(=O)cc(C)n1-c1ccc(Cl)cc1")
34.8
>>> quantitative_readout("Cc1cccc(Cn2c(=O)oc3ccc(C)cc32)c1")
4.5

Would you mind giving solubility kinetic for every compound in the list below?
1. Cc1cc(N2CC(C)OC(C)C2)n2cc(-c3ccccc3)nc2n1 (stereo not drawn)
2. Cc1ccc(C(=O)NCCNC(=O)c2ccco2)cc1C
3. CC(=O)c1ccc(NC(=O)CCc2ccc(C)o2)cc1

Response given:
1. 15.4
2. 38.8
3. 36.7

###

measurement_setup: buffer; pH 7.4; 200.0 µM
assay_endpoint: solubility kinetic

# annotated cases, reported solubility kinetic shown
>>> result("Br.CC(=O)c1sc(Nc2ccc(C)cc2)nc1C")
"> 49.1 µg/mL"
>>> result("COc1c(C)cc(C(=O)C2CCCN(C3CCOCC3)C2)cc1C (stereo unspecified)")
"> 49.7 µg/mL"
>>> result("Cc1cccc(-c2nc(Nc3ccc(O)cc3)c3ccccc3n2)c1")
"5.8 µg/mL"
>>> result("COc1ccc(-c2nc(-c3ccncc3)no2)c(OC)c1")
"6 µg/mL"
>>> result("CCc1ccccc1NC(=O)CC(NCc1ccccc1)C(=O)O (stereo unspecified)")
"> 49 µg/mL"

Here is the next item to consider.
Challenge: Need solubility kinetic, item O=C(CO/N=C/c1ccc(OC(F)F)cc1)NC1CCCC1
Response given: > 46.8 µg/mL

###

measurement_setup: buffer; pH 7.4; 200.0 µM
Is solubility kinetic at least 20 µg/mL? Then satisfied. If not, not satisfied.

>>> cat("CCN(CC)C(=O)C(C)N(C#N)c1nc(Cl)nc(N(C)C)n1 (stereo not given)")
"satisfied"

Challenge: Determine whether measured solubility kinetic meets or exceeds 20 µg/mL for COc1ccc(-n2nc(C(=O)N(C)C)nc2-c2ccccc2)cc1
Response given: satisfied

Challenge: Determine whether measured solubility kinetic meets or exceeds 20 µg/mL for CN(C)C(=O)N1CCNCC1.Cl
Response given: satisfied

Challenge: Determine whether measured solubility kinetic meets or exceeds 20 µg/mL for COc1ccc(-n2c(C)c(C(=O)O)c3cc(OC)c4ccccc4c32)cc1
Response given: not satisfied

Challenge: Determine whether measured solubility kinetic meets or exceeds 20 µg/mL for Cc1cccc(OCCOC(=O)c2c(-c3ccccc3)noc2C)c1
Response given: not satisfied

Challenge: Determine whether measured solubility kinetic meets or exceeds 20 µg/mL for Cc1cc(C)nc(NC(=O)Cc2ccc(Cl)cc2)c1
Response given: not satisfied

Challenge: Determine whether measured solubility kinetic meets or exceeds 20 µg/mL for Cc1ccc2oc(C(=O)NCc3ccccc3)cc(=O)c2c1
Response given: not satisfied
